The reported measurements were obtained from paper PMC4446597.

molecular target: CDK1/cyclin B; assay: Protein kinase assay, CDK1/cyclin B; type: biochemical; conditions: 15 µM ATP, 30 °C, triplicates
pIC50: −log10 of the molar value.
propertyMeasured: pIC50

- compound: "C[C@@]12CCCc3coc(c31)C(=O)c1cc3c(cc12)C(=O)C1=C(NCCS1(=O)=O)C3=O [Compound 6, adociaquinone B]"
  pIC50: "< 5.00"
- compound: "CO[C@]12OC(O)C3=C1[C@@](C)(CCC3=O)c1cc3c(OS(=O)(=O)O)ccc(O)c3cc1C2=O (stereo partly shown) [Compound 13]"
  pIC50: "< 5.00"
- compound: "C[C@@]12CCC(=O)c3coc(c31)C(=O)c1cc3c(O)ccc(OS(=O)(=O)O)c3cc12 [Compound 12]"
  pIC50: 5.37

Here is the next item to consider.
Data request: Given the compound C[C@@]12CCCc3coc(c31)C(=O)c1cc3c(cc12)C(=O)C=C(NCCS(=O)(=O)O)C3=O [Compound 8, secoadociaquinone B] , write its reported pIC50.
Data returned: < 5.00

====

biological target: glycogen synthase kinase-3α/β (GSK-3α/β); experiment: Protein kinase assay, GSK-3α/β; conditions: 15 µM ATP, 30 °C, triplicates, read-out: GSK3 IC50
propertyMeasured: IC50

Examples from the recorded data:
- molecule: "C[C@@]12CCC(=O)c3coc(c31)C(=O)c1cc3c(O)ccc(OS(=O)(=O)O)c3cc12"
  IC50: "0.61 µM"
- molecule: "C[C@@]12CCCc3coc(c31)C(=O)c1cc3c(cc12)C(=O)C=C(NCCS(=O)(=O)O)C3=O"
  IC50: "> 10 µM"
- molecule: "CO[C@]12OC(O)C3=C1[C@@](C)(CCC3=O)c1cc3c(OS(=O)(=O)O)ccc(O)c3cc1C2=O (stereo partly shown)"
  IC50: "> 10 µM"

Data request: Recall and state the measured IC50 for C[C@@]12CCCc3coc(c31)C(=O)c1cc3c(cc12)C(=O)C1=C(NCCS1(=O)=O)C3=O .
Data returned: > 10 µM
